tested on: A549; test: Cytotoxicity against human A549 cells assessed as cell growth inhibition for 72 hrs by MTT assay; assay type: functional; details: Homo sapiens, A549, 72 h
measured endpoint: GI50 (µM)
// units = µM; emit number, no label

Some solved entries appear below for comparison.
1. CCN(CC)CCOc1cc2c(c3c1[C@H](C(C)C)C1=C(O3)C(C)(C)C(=O)C(C)(C)C1=O)[C@@H](C(C)C)C1=C(O2)C(C)(C)C(=O)C(C)(C)C1=O	46
2. CC(C)[C@@H]1C2=C(Oc3c1c(OCC1CC1)cc1c3[C@@H](C(C)C)C3=C(O1)C(C)(C)C(=O)C(C)(C)C3=O)C(C)(C)C(=O)C(C)(C)C2=O	24

Then there is this compound:
Challenge: Look up GI50: CC(C)[C@@H]1C2=C(Oc3c1c(OCCN(C)C)cc1c3[C@@H](C(C)C)C3=C(O1)C(C)(C)C(=O)C(C)(C)C3=O)C(C)(C)C(=O)C(C)(C)C2=O
Response given: 54

---

tested on: A549; assay: Cytotoxicity against human A549 cells assessed as cell growth inhibition for 72 hrs by MTT assay; assay type: functional; conditions: Homo sapiens, A549, 72 h
Some compounds, each annotated with its measured GI50.
// units = µM; emit number, no label

Challenge: Look up GI50: COc1ccc(COc2cc3c(c4c2[C@H](C(C)C)C2=C(O4)C(C)(C)C(=O)C(C)(C)C2=O)[C@@H](C(C)C)C2=C(O3)C(C)(C)C(=O)C(C)(C)C2=O)cc1
Response given: 32

Challenge: Look up GI50: CCOC(CCCOc1cc2c(c3c1[C@H](C(C)C)C1=C(O3)C(C)(C)C(=O)C(C)(C)C1=O)[C@@H](C(C)C)C1=C(O2)C(C)(C)C(=O)C(C)(C)C1=O)OCC
Response given: 62

Challenge: Look up GI50: CC(C)[C@@H]1C2=C(Oc3c1c(O)cc1c3[C@H](C(C)C)C3=C(O1)C(C)(C)C(=O)C(C)(C)C3=O)C(C)(C)C(=O)C(C)(C)C2=O
Response given: 56
